All figures here come from ChEMBL document CHEMBL1153903.

# Assay name: Inhibition of T3SS-dependent SipA secretion in Salmonella Typhimurium
# Parameters: species or system Salmonella enterica subsp. enterica serovar Typhimurium
Endpoint name: IC50 (µM)

The examples below pair each entry with its known result.
- Compound: "COc1cc(/C=C2\\S/C(=N\\c3ccccc3)N(CC(=O)Nc3ccccc3NC(=O)CN3C(=O)/C(=C/c4cc(OC)c(O)c(OC)c4)S/C3=N\\c3ccccc3)C2=O)cc(OC)c1O"
  Units text: "µM"
  IC50: 22
- Compound: "COc1cc(/C=C2\\S/C(=N\\c3ccccc3)N(CCN3CCN(CCN4C(=O)/C(=C/c5cc(OC)c(O)c(OC)c5)S/C4=N\\c4ccccc4)CC3)C2=O)cc(OC)c1O"
  Units text: "µM"
  IC50: 44
- Compound: "COc1cc(/C=C2\\S/C(=N\\c3ccccc3)N(CCCNC(=O)CN3C(=O)/C(=C/c4cc(OC)c(O)c(OC)c4)S/C3=N\\c3ccccc3)C2=O)cc(OC)c1O"
  Units text: "µM"
  IC50: 48
- Compound: "COc1cc(/C=C2\\S/C(=N\\c3ccccc3)N(CCCNC(=O)[C@H](CCCNC(=N)N)NC(=O)CN3C(=O)/C(=C/c4cc(OC)c(O)c(OC)c4)S/C3=N\\c3ccccc3)C2=O)cc(OC)c1O"
  Units text: "µM"
  IC50: 48
- Compound: "COc1cc(/C=C2\\S/C(=N\\c3ccccc3)N(CCCNC(=O)[C@H](Cc3ccc(-c4ccccc4)cc3)NC(=O)[C@H](CCCN)N3C(=O)/C(=C/c4cc(OC)c(O)c(OC)c4)S/C3=N\\c3ccccc3)C2=O)cc(OC)c1O"
  Units text: "µM"
  IC50: 49

(1) COc1cc(/C=C2\S/C(=N\c3ccccc3)N(c3ccccc3)C2=O)cc(OC)c1O
(2) COc1cc(/C=C2\S/C(=N\c3ccccc3)N(CCCCNC(=N)NCCN3C(=O)/C(=C/c4cc(OC)c(O)c(OC)c4)S/C3=N\c3ccccc3)C2=O)cc(OC)c1O
(3) COc1cc(/C=C2\S/C(=N\c3ccccc3)N(CCCCCCNC(=O)CCCN3C(=O)/C(=C/c4cc(OC)c(O)c(OC)c4)S/C3=N\c3ccccc3)C2=O)cc(OC)c1O
(4) COc1cc(/C=C2\S/C(=N\c3ccccc3)N(CCCCCCNC(=O)CN3C(=O)/C(=C/c4cc(OC)c(O)c(OC)c4)S/C3=N\c3ccccc3)C2=O)cc(OC)c1O
Input: Rank by IC50 (largest to smallest). Form entry: labels listed in requested order.
Output: 1, 2, 3, 4
(1: 83 µM, 2: 47 µM, 3: 17 µM, 4: 5 µM)

---

# Assay name: Inhibition of T3SS-dependent SipA secretion in Salmonella Typhimurium
# Set-up: species or system Salmonella enterica subsp. enterica serovar Typhimurium
Endpoint name: IC50 (µM)

- Compound: "COc1cc(/C=C2\\S/C(=N\\c3ccccc3)N(CC(=O)Nc3cccc(NC(=O)CN4C(=O)/C(=C/c5cc(OC)c(O)c(OC)c5)S/C4=N\\c4ccccc4)c3)C2=O)cc(OC)c1O"
  Units text: "µM"
  Experimental result: 80
- Compound: "COc1cc(/C=C2\\S/C(=N\\c3ccccc3)N(CCNC(=O)C3CCCN3C(=O)CN3C(=O)/C(=C/c4cc(OC)c(O)c(OC)c4)S/C3=N\\c3ccccc3)C2=O)cc(OC)c1O (stereo not drawn)"
  Units text: "µM"
  Experimental result: 55
- Compound: "COc1cc(/C=C2\\S/C(=N\\c3ccccc3)N(CCCCCCNCCN3C(=O)/C(=C/c4cc(OC)c(O)c(OC)c4)S/C3=N\\c3ccccc3)C2=O)cc(OC)c1O"
  Units text: "µM"
  Experimental result: 65
